Values were extracted from ChEMBL document CHEMBL6115017.

# target: Cytochrome P450 2B6 (Homo sapiens, UniProt P20813)
# Sequence (P20813 whole entry): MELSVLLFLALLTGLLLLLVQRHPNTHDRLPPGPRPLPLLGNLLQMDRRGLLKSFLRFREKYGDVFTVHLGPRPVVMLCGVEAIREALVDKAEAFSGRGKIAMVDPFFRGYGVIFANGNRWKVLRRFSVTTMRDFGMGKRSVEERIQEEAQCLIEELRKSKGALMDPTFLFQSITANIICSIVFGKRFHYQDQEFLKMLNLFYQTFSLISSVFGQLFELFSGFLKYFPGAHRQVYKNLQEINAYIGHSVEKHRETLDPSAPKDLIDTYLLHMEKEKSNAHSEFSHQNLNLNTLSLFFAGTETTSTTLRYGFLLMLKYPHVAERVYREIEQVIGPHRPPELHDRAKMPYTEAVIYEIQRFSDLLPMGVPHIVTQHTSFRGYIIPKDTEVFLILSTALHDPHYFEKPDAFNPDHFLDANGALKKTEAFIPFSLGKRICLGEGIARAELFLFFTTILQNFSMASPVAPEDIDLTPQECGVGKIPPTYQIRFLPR
measurementKind: IC50

Task item: Give Cytochrome P450 2B6 (Homo sapiens, UniProt P20813) IC50 for `CC(C)(O)c1ncc([S@](N)(=O)=NC(=O)Nc2c3c(cc4c2CCC4)CCC3)s1`
Reply: > 60 µM

###

# methodDescription: Solubility of the compound in PBS at pH 7.4
# Type: physicochemical
solubility by entry:
The response must be a number in µg/mL with no trailing unit.

Check out these entries, answers already filled in.
CC(C)(O)c1ncc([S@](N)(=O)=NC(=O)Nc2c3c(cc4c2CCC4)CCC3)s1	21
CC(C)(O)c1coc(S(=O)(=O)NC(=O)Nc2c3c(cc4c2CCC4)CCC3)c1	1080

Task item: Which solubility value belongs to `CC(C)(O)c1csc([S@](N)(=O)=NC(=O)Nc2c3c(cc4c2CCC4)CCC3)c1` ?
Reply: 24

Task item: Which solubility value belongs to `CC(C)(O)c1ncc([S@](N)(=O)=NC(=O)Nc2c3c(c(F)c4c2CCC4)CCC3)s1` ?
Reply: 8

###

# methodDescription: Thermodynamic solubility in PBS at pH 5
# Assay type: physicochemical
# conditions: read-out: Therm_solubility
measurementKind: solubility thermodynamic (µg/mL)
The response must be a number in µg/mL with no trailing unit.

Task item: Which solubility thermodynamic value belongs to `CC(C)(O)c1ncc([S@](N)(=O)=NC(=O)Nc2c3c(cc4c2CCC4)CCC3)s1` ?
Reply: 9.1

###

# methodDescription: Cmax in Cynomolgus monkey at 5 mg/kg, po by LC-MS analysis
# Format: ADME, organism-based, Macaca fascicularis
# conditions: in vivo
measurementKind: Cmax
Hey, just the number and the unit after it is fine.

Task item: Which Cmax value belongs to `CC(C)(O)c1ncc([S@](N)(=O)=NC(=O)Nc2c3c(cc4c2CCC4)CCC3)s1` ?
Reply: 21.5 µg/mL

###

# methodDescription: Metabolic stability in human hepatocytes assessed as intrinsic clearance measured per 10^6 cells
# Type: ADME, cell-based, Hepatocyte
# conditions: read-out: CLH
measurementKind: hepatocyte CLint
Hey, just the number and the unit after it is fine.

Task item: Which hepatocyte CLint value belongs to `CC(C)(O)c1nc([S@](N)(=O)=NC(=O)Nc2c3c(cc4c2CCC4)CCC3)cs1` ?
Reply: 1.6 µL/min/1e6 cells

Task item: Which hepatocyte CLint value belongs to `CC(C)(O)c1cnc([S@](N)(=O)=NC(=O)Nc2c3c(cc4c2CCC4)CCC3)s1` ?
Reply: 0.63 µL/min/1e6 cells

Task item: Which hepatocyte CLint value belongs to `CC(C)(O)c1ncc([S@](N)(=O)=NC(=O)Nc2c3c(cc4c2CCC4)CCC3)s1` ?
Reply: 8.4 µL/min/1e6 cells

Task item: Which hepatocyte CLint value belongs to `CC(C)(O)c1csc([S@](N)(=O)=NC(=O)Nc2c3c(cc4c2CCC4)CCC3)n1` ?
Reply: 4.2 µL/min/1e6 cells

Task item: Which hepatocyte CLint value belongs to `CC(C)(O)c1csc([S@](N)(=O)=NC(=O)Nc2c3c(cc4c2CCC4)CCC3)c1` ?
Reply: 3.6 µL/min/1e6 cells

Task item: Which hepatocyte CLint value belongs to `CC(C)(O)c1ncc([S@](N)(=O)=NC(=O)Nc2c3c(c(F)c4c2CCC4)CCC3)s1` ?
Reply: 3 µL/min/1e6 cells

###

half-life by entry:
# methodDescription: Half life in Sprague-Dawley rat at 5 mg/kg, po by LC-MS analysis
# Format: ADME, organism-based
# conditions: in vivo
The response must be a number in h with no trailing unit.

CC(C)(O)c1csc([S@](N)(=O)=NC(=O)Nc2c3c(cc4c2CCC4)CCC3)c1	2.91
CC(C)(O)c1coc(S(=O)(=O)NC(=O)Nc2c3c(cc4c2CCC4)CCC3)c1	0.635
CC(C)(O)c1ncc([S@](N)(=O)=NC(=O)Nc2c3c(c(F)c4c2CCC4)CCC3)s1	3.07
CC(C)(O)c1nc([S@](N)(=O)=NC(=O)Nc2c3c(cc4c2CCC4)CCC3)cs1	2.36

Task item: Which half-life value belongs to `CC(C)(O)c1ncc([S@](N)(=O)=NC(=O)Nc2c3c(cc4c2CCC4)CCC3)s1` ?
Reply: 2.81

Task item: Which half-life value belongs to `CC(C)(O)c1cnc([S@](N)(=O)=NC(=O)Nc2c3c(cc4c2CCC4)CCC3)s1` ?
Reply: 2.6

Task item: Which half-life value belongs to `CC(C)(O)c1csc([S@](N)(=O)=NC(=O)Nc2c3c(cc4c2CCC4)CCC3)n1` ?
Reply: 4.13

###

# methodDescription: Clearance in Sprague-Dawley rat at 5 mg/kg, po by LC-MS analysis
# Format: ADME, organism-based
# conditions: in vivo
Rule: CL/F of 4 mL/min/kg or more gives yes; anything lower gives no.

CC(C)(O)c1ncc([S@](N)(=O)=NC(=O)Nc2c3c(c(F)c4c2CCC4)CCC3)s1	no
CC(C)(O)c1csc([S@](N)(=O)=NC(=O)Nc2c3c(cc4c2CCC4)CCC3)c1	no
CC(C)(O)c1nc([S@](N)(=O)=NC(=O)Nc2c3c(cc4c2CCC4)CCC3)cs1	yes

Task item: Does the reported CL/F for `CC(C)(O)c1csc([S@](N)(=O)=NC(=O)Nc2c3c(cc4c2CCC4)CCC3)n1` fall at or above the 4 mL/min/kg mark?
Reply: no

Task item: Does the reported CL/F for `CC(C)(O)c1cnc([S@](N)(=O)=NC(=O)Nc2c3c(cc4c2CCC4)CCC3)s1` fall at or above the 4 mL/min/kg mark?
Reply: no

Task item: Does the reported CL/F for `CC(C)(O)c1coc(S(=O)(=O)NC(=O)Nc2c3c(cc4c2CCC4)CCC3)c1` fall at or above the 4 mL/min/kg mark?
Reply: yes

###

# methodDescription: Cytotoxicity against mouse CT26 cells measured after 72 hrs
# Format: toxicity, cell-based
measurementKind: EC50 at 72 h

Task item: Which EC50 at 72 h value belongs to `CC(C)(O)c1ncc([S@](N)(=O)=NC(=O)Nc2c3c(cc4c2CCC4)CCC3)s1` ?
Reply: > 100 µM

###

# methodDescription: Apparent permeability of the compound across apical to basolateral side in MDCK
# Format: ADME, cell-based, Canis lupus familiaris
# conditions: dog
measurementKind: Papp A→B (×10⁻⁶ cm/s)
The response must be a number in ×10⁻⁶ cm/s with no trailing unit.

Task item: Which Papp A→B value belongs to `CC(C)(O)c1ncc([S@](N)(=O)=NC(=O)Nc2c3c(cc4c2CCC4)CCC3)s1` ?
Reply: 8.2

###

# methodDescription: AUC (infinity) in Beagle dog at 2 mg/kg, po by LC-MS analysis
# Format: ADME, organism-based, Canis lupus familiaris
# conditions: in vivo
measurementKind: AUC(0-inf) (µg·h/mL)
The response must be a number in µg·h/mL with no trailing unit.

Task item: Which AUC(0-inf) value belongs to `CC(C)(O)c1ncc([S@](N)(=O)=NC(=O)Nc2c3c(cc4c2CCC4)CCC3)s1` ?
Reply: 163

###

# methodDescription: AUC (infinity) in Cynomolgus monkey at 5 mg/kg, po by LC-MS analysis
# Format: ADME, organism-based, Macaca fascicularis
# conditions: in vivo
measurementKind: AUC(0-inf) (µg·h/mL)
The response must be a number in µg·h/mL with no trailing unit.

Task item: Which AUC(0-inf) value belongs to `CC(C)(O)c1ncc([S@](N)(=O)=NC(=O)Nc2c3c(cc4c2CCC4)CCC3)s1` ?
Reply: 331

###

# target: Cytochrome P450 2C9 (Homo sapiens, UniProt P11712)
# Sequence (P11712 whole entry): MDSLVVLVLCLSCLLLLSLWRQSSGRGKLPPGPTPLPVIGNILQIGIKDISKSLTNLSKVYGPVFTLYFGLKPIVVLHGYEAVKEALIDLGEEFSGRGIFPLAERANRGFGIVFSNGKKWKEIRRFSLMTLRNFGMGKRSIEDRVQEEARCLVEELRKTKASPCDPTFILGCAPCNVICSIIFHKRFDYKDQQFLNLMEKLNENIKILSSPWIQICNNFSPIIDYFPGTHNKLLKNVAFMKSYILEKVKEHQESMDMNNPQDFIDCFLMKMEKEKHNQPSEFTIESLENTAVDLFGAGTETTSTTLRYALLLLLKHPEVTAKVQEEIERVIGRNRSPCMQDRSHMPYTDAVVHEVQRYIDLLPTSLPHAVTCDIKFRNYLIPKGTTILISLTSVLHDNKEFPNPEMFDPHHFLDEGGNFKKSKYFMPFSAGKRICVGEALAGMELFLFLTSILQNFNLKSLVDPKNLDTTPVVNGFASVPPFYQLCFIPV
measurementKind: IC50

Task item: Which IC50 value belongs to `CC(C)(O)c1ncc([S@](N)(=O)=NC(=O)Nc2c3c(cc4c2CCC4)CCC3)s1` ?
Reply: > 60 µM
